Test system: W2
Experiment: qHTS profiling for inhibitors of Plasmodium falciparum proliferation (AID 504749); further: nearly all actives have a fitted effect of over 60% in size
Settings: P. falciparum in erythrocytes, SYBR Green DNA, 72 h; series mostly up to 28.7 µM
Inconclusive results are not listed. The source made the active and inactive calls. The call rests on the fitted dose curve; in most records, active means well fitted inhibition curve with a large enough effect; inconclusive means small, poorly fitted or top-dose-only effect; inactive means flat fitted curve, though single readings scatter.
Give one outcome, nothing more. List: TRUE = active, FALSE = inactive

Input: Recorded test outcome, item `CN(Cc1ccc(C(C)(C)C)cc1)Cc1cccc2ccccc12`
Output: TRUE

Input: Test call, this compound: `CC(C)Cn1cnc2c1c(=O)n(C)c(=O)n2C`
Output: FALSE

Input: Assay result, entry `CCC(CC)(CC(=O)Nc1cccc(/C=C/c2nc(C3CCC3)cs2)c1)C(=O)O` — outcome?
Output: FALSE

Input: Record request — test call for `CCCCNc1ccc(C(=O)OCCOCCOCCOCCOCCOCCOCCOCCOCCOC)cc1`
Output: FALSE

Input: Please indicate how the test categorized CC(C)CCCC(C)N (stereo unspecified) .
Output: FALSE

Input: I'd appreciate the recorded outcome for `CN1CCc2cccc3c2[C@H]1Cc1ccc(O)c(O)c1-3` from this test.
Output: TRUE

Input: Could you please tell me the result logged for `O=C(O)P(=O)(O)O` in this assay?
Output: FALSE

Input: Recorded test outcome, item `C/C=C/C=N/NC(=O)c1ccncc1`
Output: FALSE

Input: // return assay outcome for O=C(O)C(Cc1cc(I)c(O)c(I)c1)c1ccccc1 (stereo unspecified)
Output: FALSE

Input: Hello, I am checking results. What call was entered for `CCOC(=O)C(C#N)=C(c1ccccc1)c1ccccc1` ?
Output: FALSE

Input: Identify the outcome logged in this assay for the compound shown: `Cl/C(=C\n1cncn1)c1ccc(Cl)cc1Cl`
Output: FALSE

###

Tested on: CP203
Assay: qHTS profiling for inhibitors of Plasmodium falciparum proliferation (AID 504749); further: nearly all actives have a fitted effect of over 60% in size; further: potency means the concentration at half of the fitted maximal effect
Settings: P. falciparum in erythrocytes, SYBR Green DNA, 72 h; series mostly up to 28.7 µM
Records with an inconclusive call do not appear. Calls of active or inactive are those of the source. Calls come from the whole dose curve; as a rule, active = well fitted inhibition curve with a large enough effect; inconclusive = small, poorly fitted or top-dose-only effect; inactive = flat fitted curve, though single readings scatter.
Property Name: Potency

Examples with answers:
Smiles Data | Tested On | Value Observed
CCNC(=O)/C=C/c1cccc(Br)c1 | CP203 | inactive
CC(=O)NC(=O)c1ccccc1O | CP203 | inactive
O=C(c1ccc(F)cc1)C1CCN(CCn2c(=S)[nH]c3ccccc3c2=O)CC1 | CP203 | 6.01 µM (active)
NC(=O)c1ccccc1O | CP203 | inactive
CNCCc1ccccn1 | CP203 | inactive

Reported Potency for `Oc1c(Cl)cc(Cl)c(Cl)c1Cc1c(O)c(Cl)cc(Cl)c1Cl` was 7.57 µM (active)

Value of measured Potency for the entry `COc1cc(C)nc(-n2nc(C)cc2OC)n1` : inactive

###

Test: qHTS of pediatric cancer cell lines to identify multiple opportunities for drug repurposing: Primary screen for NB1643 cells (AID 1347099); further: nearly all actives have a fitted effect of over 50% in size
Conditions: NB1643 neuroblastoma viability, CellTiter-Glo luminescence, 48 h; series mostly up to 46 µM
Inconclusive results are not listed. The source made the active and inactive calls. The call rests on the fitted dose curve; in most records, active means well fitted cell-killing curve with a large enough effect; inconclusive means small, poorly fitted or top-dose-only effect; inactive means no such curve, though single readings can be large or run the other way.
Outcomes you can answer with include only these: yes (1) (active), no (0) (inactive)

Input: Kindly provide the recorded test outcome for the following compound: `O=C(CN1CCN(Cc2ccc3c(c2)OCO3)CC1)N1c2ccccc2Sc2ccccc21`
Output: no (0)

Input: Write down the call the test reported for this compound. Item: `CCN(CC)CCOC(=O)C1(c2ccccc2)CCCC1`
Output: no (0)

Input: Check the results log: what was the call for `Cc1c[nH]c2ccccc12` ?
Output: no (0)

Input: Could you check what this test reported for `Cc1cc(-c2ccccc2)nnc1NCCN1CCOCC1` ?
Output: no (0)

Input: Dear all, I need the recorded test outcome for `Oc1ccccc1C=NCc1ccccc1` , thank you.
Output: no (0)

Input: Could you please tell me the result logged for `CCOc1cc(OCC)c(C(=O)CCC(=O)O)cc1OCC` in this assay?
Output: no (0)

Input: // outcome(item) with item = `CC(C)n1c(/C=C/[C@@H](O)C[C@@H](O)CC(=O)O)c(-c2ccc(F)cc2)c2ccccc21`
Output: yes (1)

Input: In this assay, the call recorded for `CC(C)Cc1ccc(CC(=O)O)cc1` was what?
Output: no (0)

Input: Outcome? `CC[C@]12CCCN3CCc4c(n(c5ccccc45)C(=O)C1)[C@@H]32`
Output: no (0)
